// data source = patent US20250179047A1

Can you tell me pKi for the items I'm about to list?
biological target: BCL2 G101V (Homo sapiens, UniProt P10415, G101V); assay: TR-FRET competitive binding assay, BCL2 G101V; details: BCL2 G101V; Ki determined from IC50; read-out: TR_FRET EKI_Bcl2 G101V
Give bare numbers, as −log10 of the molar value.

Look over these answered cases.
Chemical Smiles	Reported Measurement
Cc1c(N(C(=O)c2cc(-c3cc4c(cc3C(=O)N3Cc5ccccc5C[C@H]3C)CN(C(=O)Cc3ccccc3C#N)CC4)n(C)c2C)c2ccc(O)cc2)cc(C#N)n1C	8.77
Cc1c(N(C(=O)c2cc(-c3cc4c(cc3C(=O)N3Cc5ccccc5C[C@H]3C)CN(C(=O)Cc3ccc(OCCN(C)C5COC5)cc3)CC4)n(C)c2C)c2ccc(O)cc2)cc(C#N)n1C	9.70

Kindly review the next compound as well.
Summary line: Cc1c(N(C(=O)c2cc(-c3cc4c(cc3C(=O)N3Cc5ccccc5C[C@H]3CN3CCCCC3)CN(C(=O)Cc3ccc(OCCN5CCO[C@@H](C)C5)cc3)CC4)n(C)c2C)c2ccc(O)cc2)cc(C#N)n1C , BCL2 G101V (Homo sapiens, UniProt P10415, G101V), reported pKi = 9.70
